Entry source: ChEMBL document CHEMBL1201862

Test system: SK-MEL-2
Assay: NCI tumour cell line growth inhibition, 48 h
The source made the active and inactive calls. No stated cut-off is given here; in the data, active = GI50 up to about 1.1 µM and inactive = higher.
Labels: active, inactive

INSERT INTO measurements (compound, classification) VALUES
  ('CC(=O)O[C@]12CCC[C@H]1C1(O)C(O)CCC[C@H]12 (stereo not given in full)', 'inactive'),
  ('CN(C)c1ccc(/C(Br)=C2\OC(=O)c3ccccc32)cc1', 'inactive'),
  ('CC(C)CCCC(C)[C@H]1CCC2[C@@H]3CCC4Cc5nc6c(nc5C[C@]4(C)C3CC[C@@]21C)CC1CC[C@@H]2C(CC[C@@]3(C)C2CC[C@@H]3O)[C@@]1(C)C6 (stereo not given in full)', 'inactive'),
  ('CC(=O)OCC1OC(n2c3c(c(-c4ccc(Cl)cc4)c(C#N)c2=S)C(=O)CC(C)(C)C3)C(OC(C)=O)C(OC(C)=O)C1OC(C)=O (stereo not given)', 'inactive'),
  ('COC1=C(C)C(=O)C2=C(C1=O)C1C3CC4=C(C(=O)C(OC)=C(C)C4=O)C(CNC(=O)C(C)O)N3C(C#N)C(C2)N1C (stereo not given)', 'active'),
  ('N=C(N)N/N=C/c1ccc(O)c(C(=O)O)c1', 'inactive'),
  ('O=c1[nH]nc(-c2ccc([N+](=O)[O-])cc2)[nH]1', 'inactive'),
  ('C=C(C)CCN[Si](c1ccccc1)(c1ccccc1)C(C)(C)C', 'inactive'),
  ('c1ccc2nn(C3CCCCO3)nc2c1 (stereo not given)', 'inactive'),
  ('C=C(C)C1CC2=C(O1)C(=O)c1cccc(O)c1C2=O (stereo not given)', 'inactive'),
  ('N#CCCN(CCC#N)c1ccc(/C=C2\SC(=S)NC2=O)cc1Br', 'inactive'),
  ('Cc1ccc(S(=O)(=O)c2c(N)c3nc4ccccc4n3c3nc4ccccc4nc23)cc1', 'inactive'),
  ('COc1ccc(OC2OC(COC(c3ccccc3)(c3ccc(OC)cc3)c3ccc(OC)cc3)C(O)C(O)C2O)cc1 (stereo not given)', 'inactive'),
  ('Cc1ccc2nc3n(c2c1)C(c1c(F)cccc1F)SC3 (stereo not given)', 'inactive'),
  ('Clc1cc2c(c(CSC3=NCN(CC4CC4)CN3)c1)OCOC2', 'inactive'),
  ('C=C(C)[C@@H]1CCC2=C[C@H](CC(C)=CC3=CC(C)=C(O3)[C@@H]1OC)OC2=O', 'inactive'),
  ('CC(Cn1c(=O)oc2ccccc21)N(C)C (stereo not given)', 'inactive'),
  ('O=C1CCC(=O)C1=NNc1cc(Cl)cc(Cl)c1', 'inactive'),
  ('Cn1c(-c2ccc(/N=N/Nc3ccc(-c4n[nH]c(=S)n4C)cc3)cc2)n[nH]c1=S', 'inactive'),
  ('COP(=O)(OC)/C(=C/c1cn(C(c2ccccc2)(c2ccccc2)c2ccccc2)cn1)NC=O', 'inactive');
